Data origin: the supplement of paper PMC7877785

Kindly supply the reported self-splicing fitness (ln) values for the records listed here.
test: self-splicing fitness, log relative to wild type (ln ratio); higher = more splicing; Tetrahymena group I intron in knt gene, E. coli kanamycin selection, DiMSum; sequences stand for … in CUCUCU…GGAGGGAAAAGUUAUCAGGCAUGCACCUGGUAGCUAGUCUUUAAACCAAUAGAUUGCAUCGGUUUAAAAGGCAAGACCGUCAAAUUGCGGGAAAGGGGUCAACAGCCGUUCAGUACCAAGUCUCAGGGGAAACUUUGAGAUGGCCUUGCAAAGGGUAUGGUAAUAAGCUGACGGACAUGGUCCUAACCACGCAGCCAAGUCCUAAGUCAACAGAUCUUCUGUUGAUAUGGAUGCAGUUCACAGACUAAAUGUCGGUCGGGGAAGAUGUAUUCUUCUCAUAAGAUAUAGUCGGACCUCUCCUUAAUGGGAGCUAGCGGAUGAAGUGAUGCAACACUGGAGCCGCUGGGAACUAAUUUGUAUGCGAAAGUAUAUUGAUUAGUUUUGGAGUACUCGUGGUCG; settings: 30 °C;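 also: selection with 25 µg/mL kanamycin versus none on LB agar overnight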

Which value of self-splicing fitness (ln) has been reported for `AGGUAGCAAUAUUACGGUAC` in the records?
-3.52

Field request: self-splicing fitness (ln) | item: `AGACAGCAAUAUUACGGUCC`
-3.24

Entry under review: `UACAAGCAAUAUUACGGGGA` . Reported self-splicing fitness (ln)?
-1.5

Form field: reported self-splicing fitness (ln) of `AAAGAGCAAUAUUACGCACU`
-1.46

Param item = `UGGGAGCAAUAUUACGCGGG` ; retrieve measured self-splicing fitness (ln).
-3.85

For `CGUCAGCAAUAUUACGCCCG` , what is its reported self-splicing fitness (ln)?
-1.23

Bench note: what self-splicing fitness (ln) did `CGGGAGCAAUAUUACGUAGC` show?
-2.26

----------
assay: self-splicing fitness, log relative to wild type (ln ratio); higher = more splicing; Tetrahymena group I intron in knt gene, E. coli kanamycin selection, DiMSum; sequences stand for … in CUCUCU…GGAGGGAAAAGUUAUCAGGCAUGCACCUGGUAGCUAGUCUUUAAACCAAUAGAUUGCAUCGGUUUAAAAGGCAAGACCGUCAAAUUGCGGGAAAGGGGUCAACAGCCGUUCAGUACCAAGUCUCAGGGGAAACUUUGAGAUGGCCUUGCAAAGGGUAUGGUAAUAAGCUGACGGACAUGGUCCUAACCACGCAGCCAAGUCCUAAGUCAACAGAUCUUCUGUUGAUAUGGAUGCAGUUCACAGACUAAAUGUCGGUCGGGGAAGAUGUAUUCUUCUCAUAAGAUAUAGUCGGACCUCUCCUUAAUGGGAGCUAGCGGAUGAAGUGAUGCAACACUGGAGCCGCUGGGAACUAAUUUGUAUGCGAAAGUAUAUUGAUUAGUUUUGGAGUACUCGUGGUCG; conditions: 30 °C
assayReadout: self-splicing fitness (ln)
Please give the numeric answer without any surrounding text.

Need self-splicing fitness (ln), item `AGUUAGCAAUAUUACGCUCG`
-0.0767

What does the record list as self-splicing fitness (ln) for `CCUCAGCAAUAUUACGGCUG` ?
-3.84

// query self-splicing fitness (ln) value for entry `ACACAGCAAUAUUACGAAAG`
-2.32

What value of self-splicing fitness (ln) has been recorded for this entry: `UGCUAGCAAUAUUACGGUGU`
-3.16

May I ask what self-splicing fitness (ln) has been recorded for `CCUGAGCAAUAUUACGUUUU` ?
-3.74

Would you mind telling me what self-splicing fitness (ln) value was observed for `UAUAAGCAAUAUUACGGAGG` ?
-2.6

Which self-splicing fitness (ln) reading was recorded for the sequence `GAUAAGCAAUAUUACGAUUC` ?
-1.39

----------
Answer each item with its documented self-splicing fitness (ln).
experiment: self-splicing fitness, log relative to wild type (ln ratio); higher = more splicing; Tetrahymena group I intron in knt gene, E. coli kanamycin selection, DiMSum; sequences stand for … in CUCUCU…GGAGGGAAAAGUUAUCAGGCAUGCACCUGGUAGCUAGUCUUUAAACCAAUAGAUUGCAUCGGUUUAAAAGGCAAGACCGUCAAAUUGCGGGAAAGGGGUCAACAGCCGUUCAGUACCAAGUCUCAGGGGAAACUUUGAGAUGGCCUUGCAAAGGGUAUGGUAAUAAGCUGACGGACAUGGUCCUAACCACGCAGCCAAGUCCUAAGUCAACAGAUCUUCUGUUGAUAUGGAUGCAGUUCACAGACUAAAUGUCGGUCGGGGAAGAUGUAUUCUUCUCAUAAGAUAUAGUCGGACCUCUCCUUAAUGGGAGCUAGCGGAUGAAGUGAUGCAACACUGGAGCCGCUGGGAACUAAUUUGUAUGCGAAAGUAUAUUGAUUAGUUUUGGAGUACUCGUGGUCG; settings: 30 °C
Respond using a number only.

Request the reported self-splicing fitness (ln) associated with `CGCUAGCAAUAUUACGUAGC`
-3.14

Which self-splicing fitness (ln) is listed for `AGACAGCAAUAUUACGCGGA` ?
-2.87

Given `CUCUAGCAAUAUUACGCAGU` , state its recorded self-splicing fitness (ln).
-4.21

For the sequence `GAUGAGCAAUAUUACGCGAG` , what self-splicing fitness (ln) is on record?
-0.593

// lookup self-splicing fitness (ln) for `GGAAAGCAAUAUUACGCGUC`
-3.58

# input sequence: `CGCCAGCAAUAUUACGCCCA` ; wanted: its self-splicing fitness (ln)
-1.42

# input sequence: `CAAUAGCAAUAUUACGUGUA` ; wanted: its self-splicing fitness (ln)
-3.98

# get_value(readout='self-splicing fitness (ln)', item= `ACACAGCAAUAUUACGUUGC` )
-3.87

Quick one: self-splicing fitness (ln) of `AUCGAGCAAUAUUACGAAAC` ?
-2.27

Quick check: self-splicing fitness (ln) of `AAGGAGCAAUAUUACGGUCC` ?
-2.13

self-splicing fitness (ln) for `GCGGAGCAAUAUUACGUGUA` ?
-3.49

Could you tell me which self-splicing fitness (ln) is on file for `AACCAGCAAUAUUACGAAGC` ?
-3.37

// query self-splicing fitness (ln) value for entry `AUUCAGCAAUAUUACGACUC`
-0.805

Any idea what self-splicing fitness (ln) was measured for `UCACAGCAAUAUUACGCCCA` ?
-1.47

State the recorded self-splicing fitness (ln) for this entry: `AGCCAGCAAUAUUACGGCGC`
-1.51

// lookup self-splicing fitness (ln) for `CCCCAGCAAUAUUACGCACG`
-2.64

Recorded self-splicing fitness (ln) for `CGUUAGCAAUAUUACGAAGA` , please?
-2.24

Given `UGUAAGCAAUAUUACGCACA` , state its recorded self-splicing fitness (ln).
-1.44

What self-splicing fitness (ln) value was documented for this sequence, `CUCAAGCAAUAUUACGCCAG` ?
-3.03

Endpoint output: self-splicing fitness (ln) of `CACGAGCAAUAUUACGACCU` . Value?
-2.18

----------
For each entry below, report its self-splicing fitness (ln) value.
experiment: self-splicing fitness, log relative to wild type (ln ratio); higher = more splicing; Tetrahymena group I intron in knt gene, E. coli kanamycin selection, DiMSum; sequences stand for … in CUCUCU…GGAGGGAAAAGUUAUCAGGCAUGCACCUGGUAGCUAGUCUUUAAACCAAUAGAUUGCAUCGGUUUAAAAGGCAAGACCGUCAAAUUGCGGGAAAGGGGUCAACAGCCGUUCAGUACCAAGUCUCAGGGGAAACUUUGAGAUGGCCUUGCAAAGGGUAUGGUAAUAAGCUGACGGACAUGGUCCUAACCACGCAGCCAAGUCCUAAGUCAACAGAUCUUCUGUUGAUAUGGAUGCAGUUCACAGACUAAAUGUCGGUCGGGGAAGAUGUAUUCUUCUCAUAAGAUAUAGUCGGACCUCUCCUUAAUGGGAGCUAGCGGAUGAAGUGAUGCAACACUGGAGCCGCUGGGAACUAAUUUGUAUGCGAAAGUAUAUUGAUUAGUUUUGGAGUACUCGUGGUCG; conditions: 30 °C
In your answer, state the number alone without any accompanying words.

Find the recorded self-splicing fitness (ln) belonging to `UCUAAGCAAUAUUACGGGUC` and report it.
-2.67

What does the data say about its self-splicing fitness (ln)? Entry: `GGGUAGCAAUAUUACGGGAG`
-2.54

Request the reported self-splicing fitness (ln) associated with `UCUGAGCAAUAUUACGAGGC`
-2.78

Give its self-splicing fitness (ln) value. Item: `CAACAGCAAUAUUACGUCAA`
-3.49

Item `CAUCAGCAAUAUUACGAUUG` has what recorded self-splicing fitness (ln)?
-1.45

----------
Field: self-splicing fitness (ln). Provide a value for each of the sequences that follow.
assay: self-splicing fitness, log relative to wild type (ln ratio); higher = more splicing; Tetrahymena group I intron in knt gene, E. coli kanamycin selection, DiMSum; sequences stand for … in CUCUCU…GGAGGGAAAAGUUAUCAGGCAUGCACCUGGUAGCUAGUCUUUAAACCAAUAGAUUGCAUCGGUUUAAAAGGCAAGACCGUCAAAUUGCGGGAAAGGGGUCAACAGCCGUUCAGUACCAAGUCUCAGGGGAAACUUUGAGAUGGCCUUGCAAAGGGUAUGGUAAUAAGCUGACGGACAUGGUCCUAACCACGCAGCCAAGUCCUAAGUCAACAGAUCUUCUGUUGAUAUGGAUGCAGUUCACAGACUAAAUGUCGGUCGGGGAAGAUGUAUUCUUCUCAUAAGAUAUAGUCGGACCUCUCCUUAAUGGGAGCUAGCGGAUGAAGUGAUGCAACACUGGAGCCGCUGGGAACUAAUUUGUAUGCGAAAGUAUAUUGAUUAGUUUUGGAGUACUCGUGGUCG; conditions: 37 °C
Give only the figure.

// query self-splicing fitness (ln) value for entry `UGUGAGCAAUAUUACGGGUC`
-2.41

Item `CAAAAGCAAUAUUACGGCUC` has what recorded self-splicing fitness (ln)?
0.0316

// lookup self-splicing fitness (ln) for `GCACAGCAAUAUUACGACUU`
0.33

// lookup self-splicing fitness (ln) for `CUGGAGCAAUAUUACGAUGC`
-1.84

Need self-splicing fitness (ln), item `CGUAAGCAAUAUUACGCCAG`
-0.931

For the sequence shown here, `UAUGAGCAAUAUUACGAGGA` , give the reported self-splicing fitness (ln).
-1.91

Look at this sequence and give its reported self-splicing fitness (ln). `AGGUAGCAAUAUUACGGAAC`
-2.2

Item `GGUAAGCAAUAUUACGUUCU` has what recorded self-splicing fitness (ln)?
-0.359

Would you kindly share the measured self-splicing fitness (ln) for `UUAGAGCAAUAUUACGGCAG` ?
-0.707

Dear colleague, I am looking for the recorded self-splicing fitness (ln) of the following sequence: `GUGUAGCAAUAUUACGUGUC`
-0.104

Data request, read-out self-splicing fitness (ln), for `UUGGAGCAAUAUUACGAGCG`
-0.508

# query: self-splicing fitness (ln) of entry `ACUAAGCAAUAUUACGCUAU`
-1.84

I have this sequence here, `GCCGAGCAAUAUUACGCGUU` , and I need its recorded self-splicing fitness (ln).
-0.778

If you can, please state the reported self-splicing fitness (ln) value of `UGGCAGCAAUAUUACGCGGG` .
-1.48
